# measurement target: T1, human PRLR (Biacore antigen) (human, UniProt P16471 25-234, limits assumed)
# T1 construct: The construct injected over captured antibody is not described (a soluble form is likely); also called huPRLR
# T1 sequence: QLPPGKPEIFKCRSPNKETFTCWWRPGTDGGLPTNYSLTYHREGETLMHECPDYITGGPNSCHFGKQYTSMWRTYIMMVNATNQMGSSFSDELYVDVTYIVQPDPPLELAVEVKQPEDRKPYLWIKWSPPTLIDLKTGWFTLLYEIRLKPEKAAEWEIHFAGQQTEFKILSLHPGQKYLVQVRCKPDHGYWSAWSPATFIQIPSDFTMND
# protocol text: SPR simultaneous binding; PRLR held by surface mAb Ab19
Hi there, I'd appreciate the recorded solution mAb binding, % of PRLR binding for every entry that follows.
Give bare numbers, in %.

Answered cases to consult:
{"columns": ["binder", "solution mAb binding, % of PRLR binding [%]"],
 "data": [
  ["LFA102 (antibody, human IgG1, kappa, V domains shown, humanized IgG1 kappa comparator (WO 2008022295)) VH: EVQLVESGGGLVQPGGSLRLSCAVSGFTFSSYGMSWVRQAPGKRLEWVATVSSGGTYTYYPDSVKGRFTISRDNSKNTLYLQMNSLRAEDTAMYYCARHRGNYYATYYYAMDYWGQGTLVTVSS VL: DIVLTQSPDSLAVSLGERATINCKASKSVSTSGYTYMHWYQQKPGQPPKLLIYLASNRESGVPDRFSGSGSGTDFTLTISPVQAEDVATYYCQHSGELPPSFGQGTKLEIKR", 19],
  ["chAb7 (antibody, human IgG1, kappa, V domains shown, chimeric, murine variable and human G1/kappa constant regions) VH: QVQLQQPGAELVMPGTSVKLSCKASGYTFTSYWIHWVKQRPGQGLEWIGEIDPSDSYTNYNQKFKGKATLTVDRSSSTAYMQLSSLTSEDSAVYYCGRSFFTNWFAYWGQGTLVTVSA VL: DVVMTQTPLSLPVSLGDQASISCRSSQSLVHSNGNTYLHWYLQKPGQSPKLLIYKVSNRFSGVPDRFSGSGSGTDFTLKINRVEAEDLGVYFCSQSTHVPFTFGSGTKLEIKT", -1]
]}

For every item below, please supply its solution mAb binding, % of PRLR binding.
1. Ab39 (antibody, human IgG1, kappa, V domains shown, humanized from Ab7; G1; also called Ab4 HC.1a and Ab4 LC.1a) VH: EVQLVQSGAEVKKPGSSVKVSCKASGYTFTSYWIHWVRQAPGQGLEWIGEIDPSDSYTNYNQKFKGRATLTVDKSSSTAYMELSSLRSEDTAVYYCARSFFTNWFAYWGQGTLVTVSS VL: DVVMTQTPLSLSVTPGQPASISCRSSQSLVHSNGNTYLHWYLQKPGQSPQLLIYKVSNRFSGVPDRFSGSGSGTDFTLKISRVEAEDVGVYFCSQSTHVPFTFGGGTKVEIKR
2. Ab19 (antibody, human IgG1, kappa, V domains shown, humanized from Ab6; G1; also called Ab1 HC.1a and Ab1 LC.1a) VH: EVQLVQSGAEVKKPGSSVKVSCKASGYTFTTYWMHWVRQAPGQGLEWIGEIDPSDSYSNYNQKFKDRATLTVDKSTSTAYMELSSLRSEDTAVYYCARNGGLGPAWFSYWGQGTLVTVSS VL: DIQMTQSPSSVSASVGDRVTITCKASQYVGTAVAWYQQKPGKSPKLLIYSASNRYTGVPSRFSDSGSGTDFTLTISSLQPEDFATYFCQQYSSYPWTFGGGTKVEIKR

[-1, -1]

// solution mAb binding, % of PRLR binding lookup, key: Ab30 (antibody, human IgG1, kappa, V domains shown, humanized from Ab5; G1; also called Ab2 HC.1a and Ab2 LC.1a) VH: EVQLVQSGAEVKKPGSSVKVSCKASGYTFTSFWMHWVRQAPGQGLEWIGVIDPSDTYTNYNQKFKGRATLTVDESSSTAYMELSSLRSEDTAVYYCARGDYSNWFTYWGQGTLVTVSS VL: DVVMTQTPLSLSVTPGQPASISCRSSQRLVHSNGNTYLHWYLQKPGQSPQLLIYKVSNRFSGVPDRFSGSGSGTDFTLKISRVEAEDVGVYFCSQSTHVPWTFGGGTKVEIKR
-1
